Tested On: T1, monkey SEMA4D, full length, on CHO-K1 cells (CHO-K1 cSEMA4D) (monkey)
T1 construct: whole, on cells; also called monkey SEMA4D recombinant cells
Test Description: FACS, CHO-K1 cSEMA4D cells; Ab 0.00427 nM
Experimental: After the cells were counted, they were diluted with PBS to 2×10⁶ cells per milliliter. After washing, 100 μL of diluted and purified leading antibodies was added to each well and the plate was incubated for 1 hour on ice. […] Cells were washed 2 times by centrifugation with FACS buffer. The cells were suspended with 200 μL of FACS buffer, FACS (FACS Verse, purchased from BD) was used to detect and analyze the results.
Quantity Kind: MFI
Quick one: just the number, no unit, thanks!

Record excerpt, results attached:
>>> readout_value("37F11F9 (antibody, V domains shown, Mouse monoclonal antibody purified from hybridoma supernatant on protein A) VH: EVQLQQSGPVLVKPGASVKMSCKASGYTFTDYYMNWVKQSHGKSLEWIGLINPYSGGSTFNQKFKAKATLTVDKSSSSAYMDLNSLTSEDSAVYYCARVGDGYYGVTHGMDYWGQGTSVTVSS VL: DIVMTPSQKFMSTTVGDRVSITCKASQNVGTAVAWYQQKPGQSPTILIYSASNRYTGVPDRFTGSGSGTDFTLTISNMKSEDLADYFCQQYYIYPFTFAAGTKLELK")
45.4
>>> readout_value("31G10C5 (antibody, V domains shown, Mouse monoclonal antibody purified from hybridoma supernatant on protein A) VH: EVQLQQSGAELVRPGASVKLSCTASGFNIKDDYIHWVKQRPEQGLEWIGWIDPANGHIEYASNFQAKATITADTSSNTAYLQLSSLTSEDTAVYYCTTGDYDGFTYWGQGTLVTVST VL: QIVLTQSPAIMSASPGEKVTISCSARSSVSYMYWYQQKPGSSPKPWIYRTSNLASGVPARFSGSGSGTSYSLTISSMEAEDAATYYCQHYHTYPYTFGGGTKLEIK")
152

Field: next binder
Prompt line: Reported MFI for 32C8F10 (antibody, V domains shown, Mouse monoclonal antibody purified from hybridoma supernatant on protein A) VH: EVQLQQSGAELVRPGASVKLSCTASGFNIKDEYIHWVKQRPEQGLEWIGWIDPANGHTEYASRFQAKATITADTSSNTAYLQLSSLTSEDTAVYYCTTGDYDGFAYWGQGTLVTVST VL: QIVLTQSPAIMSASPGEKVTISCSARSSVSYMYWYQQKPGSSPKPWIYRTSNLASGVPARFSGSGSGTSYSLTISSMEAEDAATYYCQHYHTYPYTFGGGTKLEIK : what is it?
Response line: 97.6

Each recorded value in this set is attributed to patent US20220073608A1.
